Data provenance: patent US20260116991A1

- Test system: monkey GPC3-His protein (monkey)
- Test method notes: ELISA, monkey GPC3-His coated; antibody 66.66 nM
Please assign false whenever OD450 nm is at or above 2, and true whenever it is below.

Observe how each entry below is paired with its result.
Identify whether the binder hAb003LH1L1a (antibody, human IgG1, V domains shown) VH: EVQLVQSGAEVKKPGSSVKVSCKASGYTFSDYEMHWVRQAPGQGLEWMGTIDPETGNTAYTQKFMDRVTITADKSTSTAYMELSSLRSEDTAVYYCTRGYSFTYWGQGTLVTVSS VL: DIVMTQTPLSLPVTPGEPASISCRSSQNIVHSDGNTYLQWYLQKPGQSPQLLIFKVSNRFSGVPDRFSGSGSGTDFTLKISRVEAEDVGVYYCFQGSHVPFTFGQGTKLEIK records OD450 nm below 2. false

Identify whether the binder hAb005LH3L1a (antibody, human IgG1, V domains shown) VH: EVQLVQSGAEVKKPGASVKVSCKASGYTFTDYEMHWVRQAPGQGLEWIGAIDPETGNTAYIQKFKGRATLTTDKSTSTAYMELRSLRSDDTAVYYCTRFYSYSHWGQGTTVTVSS VL: DIVMTQTPLSLPVTPGEPASISCRSSQSLVHSDGNTYLHWYLQKPGQSPQLLIYKVSNRFSGVPDRFSGSGSGTDFTLKISRVEAEDVGVYYCSQNTHVPPTFGGGTKVEIK records OD450 nm below 2. true

Identify whether the binder hAb006LH2L1b (antibody, human IgG1, V domains shown) VH: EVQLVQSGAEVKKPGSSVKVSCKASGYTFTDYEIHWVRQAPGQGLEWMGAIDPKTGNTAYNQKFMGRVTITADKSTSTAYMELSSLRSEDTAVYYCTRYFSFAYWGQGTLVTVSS VL: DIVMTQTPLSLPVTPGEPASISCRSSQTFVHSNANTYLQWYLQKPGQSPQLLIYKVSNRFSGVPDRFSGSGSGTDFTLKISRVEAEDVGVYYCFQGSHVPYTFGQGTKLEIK records OD450 nm below 2. false

Identify whether the binder hAb006LH1L1 (antibody, human IgG1, V domains shown) VH: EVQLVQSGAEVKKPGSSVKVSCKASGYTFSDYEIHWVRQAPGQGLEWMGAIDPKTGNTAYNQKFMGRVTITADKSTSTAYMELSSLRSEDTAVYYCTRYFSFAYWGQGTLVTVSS VL: DIVMTQTPLSLPVTPGEPASISCRSSQTFVHSNGNTYLQWYLQKPGQSPQLLIYKVSNRFSGVPDRFSGSGSGTDFTLKISRVEAEDVGVYYCFQGSHVPYTFGQGTKLEIK records OD450 nm below 2. false

Now let's try a different one.
Identify whether the binder hAb007LH2L1 (antibody, human IgG1, V domains shown) VH: EVQLVQSGAEVKKPGSSVKVSCKASGYTFTDYEMHWVRQAPGQGLEWMGTIDPETGNTAYNQKFKGRVTITADKSTSTAYMELSSLRSEDTAVYYCTRPYSLTYWGQGTLVTVSS VL: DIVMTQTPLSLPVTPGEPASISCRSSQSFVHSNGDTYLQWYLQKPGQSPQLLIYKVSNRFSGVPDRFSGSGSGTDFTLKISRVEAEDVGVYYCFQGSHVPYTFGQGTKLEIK records OD450 nm below 2. false
